Recorded values, source PubChem BioAssay.

System: F380Y/beta1
Assay: modulators of BK channel variants, profiling panel, selectivity assay, cell-based, U2OS BacMam, thallium flux, beta subunits (AID 1259406);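 further: initial slope of Thallos dye fluorescence rise after thallium is added; log ratio against the mean of 0.3% DMSO vehicle wells on the same plate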
Conditions: at 30 µM
measured_parameter: log fold change Tl+ flux

- molecule: "COc1ccc(Cl)cc1N1C(=O)C=C(c2ccccc2)C1=O"
  observed_value: 0.00407
- molecule: "O=C(O[C@H]1[C@H](Oc2ccccc2COC(=O)C2(O)C=CCCC2=O)O[C@H](CO)[C@@H](O)[C@@H]1O)c1ccccc1 (stereo partly specified)"
  observed_value: 0.0124
- molecule: "Clc1cc(Cl)c(NN=Cc2cc(C#Cc3ccccc3)cs2)c(Cl)c1"
  observed_value: 0.00923
- molecule: "Nc1ncnc2c1ncn2[C@@H]1O[C@H](CO)C[C@@H]1O"
  observed_value: 0.0107
- molecule: "Oc1c(Cl)cc(Cl)cc1C=Nc1nccs1"
  observed_value: 0.153
- molecule: "Cn1c(C(=O)O)ccc1S(=O)(=O)N(Cc1ccccc1)Cc1ccccc1"
  observed_value: 0.205
- molecule: "N#CC(NCc1ccccc1Cl)=C(C#N)NCc1c(F)cccc1Cl"
  observed_value: -0.0209
- molecule: "COc1ccc(CCN=Cc2ccccn2)cc1OC"
  observed_value: 0.0306
- molecule: "CCCn1c(=O)c(Br)cn(-c2ccccc2C)c1=O"
  observed_value: -0.0448
- molecule: "Cc1c(C(=O)NN2CCCCC2)nn(-c2ccc(Cl)cc2Cl)c1-c1ccc(I)cc1"
  observed_value: -0.0372
- molecule: "Cc1cc(-c2nn(C)c(=O)c3ccccc23)cc(C)c1O"
  observed_value: 0.0146
